- target-desc: T1, DKK1-APP (human, UniProt O94907 32-266)
- T1 sequence: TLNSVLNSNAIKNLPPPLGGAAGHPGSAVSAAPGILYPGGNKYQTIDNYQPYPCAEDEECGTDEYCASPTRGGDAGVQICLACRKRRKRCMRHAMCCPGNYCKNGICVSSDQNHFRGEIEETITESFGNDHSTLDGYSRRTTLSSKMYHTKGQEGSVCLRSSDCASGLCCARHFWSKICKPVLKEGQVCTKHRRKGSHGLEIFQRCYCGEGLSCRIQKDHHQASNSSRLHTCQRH
- test-name: cell-based or functional assay
Class T: Luciferase reporter assay w/o Kremen; Activity in 15% Human serum (%) at least 60%. Class F: Luciferase reporter assay w/o Kremen; Activity in 15% Human serum (%) below 60%.

Query: Entry MOR04913 (Fab, V domains shown) VH: QVQLVESGGGLVQPGGSLRLSCAASGFTFNNYGMTWVRQAPGKGLEWVSGISGSGSYTYYADSVKGRFTISRDNSKNTLYLQMNSLRAEDTAVYYCARTIYMDYWGQGTLVTVSS VL: DIVLTQSPATLSLSPGERATLSCRASQNLFSPYLAWYQQKPGQAPRLLIYGASNRATGVPARFSGSGSGTDFTLTISSLEPEDFAVYYCQQYMTLPLTFGQGTKVEINR : is its Luciferase reporter assay w/o Kremen; Activity in 15% Human serum (%) no less than 60%?
Result: T

Query: Entry MOR04945 (Fab, V domains shown) VH: QVQLVESGGGLVQPGGSLRLSCAASGFTFSSYWMSWVRQAPGKGLEWVSVISSDSSSTYYADSVKGRFTISRDNSKNTLYLQMNSLRAEDTAVYYCARHGIDFDHWGQGTLVTVSS VL: DIALTQPASVSGSPGQSITISCTGTSSDLGGYNYVSWYQQHPGKAPKLMIYDVNNRPSGVSNRFSGSKSGNTASLTISGLQAEDEADYYCQTYDQIKLSAVFGGGTKLTVLG : is its Luciferase reporter assay w/o Kremen; Activity in 15% Human serum (%) no less than 60%?
Result: T

Query: Entry MOR04907 (Fab, V domains shown) VH: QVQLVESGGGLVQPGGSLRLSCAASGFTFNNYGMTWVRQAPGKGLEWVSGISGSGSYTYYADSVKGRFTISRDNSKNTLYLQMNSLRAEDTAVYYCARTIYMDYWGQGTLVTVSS VL: DIVLTQSPATLSLSPGERATLSCRASQNLFSPYLAWYQQKPGQAPRLLIYGASNRATGVPARFSGSGSGTDFTLTISSLEPEDFAVYYCQQYLSLPTTFGQGTKVEIKR : is its Luciferase reporter assay w/o Kremen; Activity in 15% Human serum (%) no less than 60%?
Result: F

Query: Entry MOR04914 (Fab, V domains shown) VH: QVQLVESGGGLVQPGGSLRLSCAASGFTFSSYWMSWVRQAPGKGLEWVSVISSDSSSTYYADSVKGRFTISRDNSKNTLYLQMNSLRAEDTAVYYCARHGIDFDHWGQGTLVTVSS VL: DIALTQPASVSGSPGQSITISCTGTSSDLGGYNYVSWYQQHPGKAPKLMIYDVNNRPSGVSNRFSGSKSGNTASLTISGLQAEDEADYYCQSYTYTPISPVFGGGTKLTVLG : is its Luciferase reporter assay w/o Kremen; Activity in 15% Human serum (%) no less than 60%?
Result: T

Query: Entry MOR04920 (Fab, V domains shown) VH: QVQLVESGGGLVQPGGSLRLSCAASGFTFSSYWMSWVRQAPGKGLEWVSSIEHKDAGYTTWYAAGVKGRFTISRDNSKNTLYLQMNSLRAEDTAVYYCARHGIDFDHWGQGTLVTVSS VL: DIALTQPASVSGSPGQSITISCTGTSSDLGGYNYVSWYQQHPGKAPKLMIYDVNNRPSGVSNRFSGSKSGNTASLTISGLQAEDEADYYCQSYASGNTKVVFGGGTKLTVLG : is its Luciferase reporter assay w/o Kremen; Activity in 15% Human serum (%) no less than 60%?
Result: T

Query: Entry MOR04921 (Fab, V domains shown) VH: QVQLVESGGGLVQPGGSLRLSCAASGFTFSSYWMSWVRQAPGKGLEWVSGISYSGSNTHYADSVKGRFTISRDNSKNTLYLQMNSLRAEDTAVYYCARMGIDLDYWGQGTLVTVSS VL: DIALTQPASVSGSPGQSITISCTGTSSDVGGFNYVSWYQQHPGKAPKLMIHDGSNRPSGVSNRFSGSKSGNTASLTISGLQAEDEADYYCQTWATSPLSSVFGGGTKLTVLG : is its Luciferase reporter assay w/o Kremen; Activity in 15% Human serum (%) no less than 60%?
Result: F

Query: Entry MOR04954 (Fab, V domains shown) VH: QVQLVESGGGLVQPGGSLRLSCAASGFTFSSYWMSWVRQAPGKGLEWVSVIEHKDKGGTTYYAASVKGRFTISRDNSKNTLYLQMNSLRAEDTAVYYCARHGIDFDHWGQGTLVTVSS VL: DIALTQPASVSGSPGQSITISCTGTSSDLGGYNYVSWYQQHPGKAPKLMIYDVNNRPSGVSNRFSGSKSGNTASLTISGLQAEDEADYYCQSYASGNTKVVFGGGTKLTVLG : is its Luciferase reporter assay w/o Kremen; Activity in 15% Human serum (%) no less than 60%?
Result: F

Query: Entry MOR04910 (Fab, V domains shown, also called anti-DKK1 FAb MOR04910) VH: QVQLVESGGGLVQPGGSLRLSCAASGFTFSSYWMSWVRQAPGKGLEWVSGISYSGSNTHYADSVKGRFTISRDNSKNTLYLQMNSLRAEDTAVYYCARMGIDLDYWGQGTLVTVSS VL: DIALTQPASVSGSPGQSITISCTGTSSDVGGFNYVSWYQQHPGKAPKLMIHDGSNRPSGVSNRFSGSKSGNTASLTISGLQAEDEADYYCQSWDVSPITAVFGGGTKLTVLG : is its Luciferase reporter assay w/o Kremen; Activity in 15% Human serum (%) no less than 60%?
Result: T

Query: Entry MOR04948 (Fab, V domains shown) VH: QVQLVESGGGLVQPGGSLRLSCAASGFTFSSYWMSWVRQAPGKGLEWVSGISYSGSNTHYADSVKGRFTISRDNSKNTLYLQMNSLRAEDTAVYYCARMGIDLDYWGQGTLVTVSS VL: DIALTQPASVSGSPGQSITISCTGTSSDVGGFNYVSWYQQHPGKAPKLMIHDGSNRPSGVSNRFSGSKSGNTASLTISGLQAEDEADYYCQTWDSLSFFVFGGGTKLTVLG : is its Luciferase reporter assay w/o Kremen; Activity in 15% Human serum (%) no less than 60%?
Result: T
